# Test system: SARS-CoV-2 BA.5 Lineage C (Mpro S144A)
# Format: cell-based
# Condition info: read-out: Mean of IC50 values ± SD
For each record, write down the corresponding pIC50.
Numbers only, as −log10 of the molar value.

Given item Cn1cnc(Cn2c(=O)[nH]/c(=N\c3cc4cn(C)nc4cc3Cl)n(Cc3cc(F)c(F)cc3F)c2=O)n1 , the value recorded as its pIC50 is 4.60

As a next step, examine the molecule that follows.
Given item CC(C)(C)[C@H](NC(=O)C(F)(F)F)C(=O)N1C[C@H]2[C@@H]([C@H]1C(=O)N[C@H](C#N)C[C@@H]1CCNC1=O)C2(C)C , the value recorded as its pIC50 is 4.43
